Biological target: human GnRH receptor (Homo sapiens, UniProt P30968)
Construct: expressed in transfected cells; host or cells: HEK 293 (hGnRH-R/293, from Dr. Stuart Sealfon)
Sequence (P30968 whole entry): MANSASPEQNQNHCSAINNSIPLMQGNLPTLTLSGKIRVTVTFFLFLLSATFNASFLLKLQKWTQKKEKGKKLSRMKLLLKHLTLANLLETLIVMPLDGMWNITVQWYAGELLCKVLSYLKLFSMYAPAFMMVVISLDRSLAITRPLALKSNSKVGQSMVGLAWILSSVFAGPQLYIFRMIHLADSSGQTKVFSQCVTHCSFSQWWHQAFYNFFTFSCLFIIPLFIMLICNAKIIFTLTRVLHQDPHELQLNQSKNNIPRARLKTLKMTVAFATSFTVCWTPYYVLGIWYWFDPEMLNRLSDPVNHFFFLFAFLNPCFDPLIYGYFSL
Experiment: Radioligand binding, 125I-GnRH-A displacement, membranes of HEK 293 cells with human GnRH receptor
Settings: 1 h, repeat of % Inhib. at 1 uM; read-out: Repeats @ 1 uM hGnRH
value_kind: inhibition at 1 µM (%)

> print(dat)
                                   compound          value.kind  numeric.value
1  Cc1cc2c(cc1Cc1ccc(C(=O)NCCNCCN3CCCC3)o1)C(C)(C)CCC2(C)C  inhibition at 1 µM              0
2  Cc1cc2c(cc1Cc1ccc(C(=O)NCCN3CCOCC3)o1)C(C)(C)CCC2(C)C [drawing 987]  inhibition at 1 µM             69
3  Cc1cc2c(cc1Cc1ccc(C(=O)NCc3ccc(S(N)(=O)=O)cc3)o1)C(C)(C)CCC2(C)C [drawing 1052]  inhibition at 1 µM             76
4  COc1cc(CNC(=O)c2ccc(Cc3cc4c(cc3C)C(C)(C)CCC4(C)C)o2)cc(OC)c1 [drawing 1026]  inhibition at 1 µM             35
5  Cc1cc2c(cc1Cc1ccc(C(=O)NCC(c3ccccc3)c3ccccc3)o1)C(C)(C)CCC2(C)C  inhibition at 1 µM            -26
6  COc1ccc(C(=O)CNC(=O)c2ccc(Cc3cc4c(cc3C)C(C)(C)CCC4(C)C)o2)cc1 [drawing 1056]  inhibition at 1 µM             23
7  Cc1cc2c(cc1Cc1ccc(C(=O)N3CCCCC3c3ccccc3)o1)C(C)(C)CCC2(C)C (centres unmarked)  inhibition at 1 µM            -22
8  Cc1cc2c(cc1Cc1ccc(C(=O)NCc3ccc(C(F)(F)F)cc3)o1)C(C)(C)CCC2(C)C  inhibition at 1 µM             41
